Numbers sourced from the supplement of paper PMC10567573.

- assay-remarks: protein stability index of a GFP-peptide fusion (GPS, HEK-293T) (PSI 1-6); higher = more stable;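 further: 24-mer peptide tiles fused after GFP, lentivirally expressed, FACS-sorted into six equal bins by GFP/DsRed ratio, decoded by Illumina sequencing, PSI is the read-weighted mean bin number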
- settings: treatment: MLN4924 1 uM, 8 h; c terminus: a fixed tail appended
Below, each of the sequences is paired with its reported protein stability index value.
// print number alone

These solved cases illustrate the format of a correct answer.
• VAQFVLTEGNPRWEQTHLTYRIEN [MMP1] = 2.35
• LVQDQDLEAIRKQDLVELYLTNCE [ZER1] = 3.85

Entry CLRVGMLKEGVRLDRVRGGRQKYK [ESRRA] , protein stability index reported as 3.42

Entry QMLRKTVKDEAHQAQKDPKKDRPL [PPP2R5C] , protein stability index reported as 4.97

Entry SQLPQVLHVSLGQKLVAAYVLGLL [MOSPD3] , protein stability index reported as 2.75

Entry SKQLTLEQLRREKIDLENTLEQEQ [CCDC6] , protein stability index reported as 5.2

Entry NIMMPMGGMMPPGPGIPPLMPGMP [ZNF207] , protein stability index reported as 2.88
